# credit: PubChem BioAssay (EPA / NIEHS)

# PROCEDURE DETAILS: CCTE_Harrill_HTTr_Apoptosis_MCF7: CCTE's 6-hour Apoptosis Assessment for the High-Throughput Transcriptomics (HTTr) Platform, in MCF-7 cells cultured in DMEM + 10% fetal bovine serum, Harrill Lab (AID 2284011)
Calls of active or inactive are those of the source. How the source made its calls: active means hit-call score of the fitted dose curve at least 0.9, where 1 is the maximum; inactive means score below 0.9.
MEASUREMENT LABEL: outcome

[
  {
    "COMPOUND": "CC(C)=CCl",
    "MEASUREMENT LABEL": "outcome",
    "OBSERVED": "inactive"
  },
  {
    "COMPOUND": "CCCCCCCCCCCCCC(=O)OC(C)C",
    "MEASUREMENT LABEL": "outcome",
    "OBSERVED": "inactive"
  },
  {
    "COMPOUND": "O=C(O)/C=C/c1ccccc1",
    "MEASUREMENT LABEL": "outcome",
    "OBSERVED": "inactive"
  },
  {
    "COMPOUND": "N=C1C=CC(=C(c2ccc(N)cc2)c2ccc(N)cc2)C=C1",
    "MEASUREMENT LABEL": "outcome",
    "OBSERVED": "inactive"
  },
  {
    "COMPOUND": "CC(=O)/C=C/C1C(C)=CCCC1(C)C (stereo not drawn)",
    "MEASUREMENT LABEL": "outcome",
    "OBSERVED": "inactive"
  },
  {
    "COMPOUND": "c1ccc2cnccc2c1",
    "MEASUREMENT LABEL": "outcome",
    "OBSERVED": "inactive"
  },
  {
    "COMPOUND": "CC(C=O)c1ccccc1 (stereo not drawn)",
    "MEASUREMENT LABEL": "outcome",
    "OBSERVED": "inactive"
  },
  {
    "COMPOUND": "CC(=O)OCCc1ccccc1",
    "MEASUREMENT LABEL": "outcome",
    "OBSERVED": "inactive"
  }
]

----------
# Read-out: Interleukin-8 (IL8), CXCL8 (gene 3576)
# PROCEDURE DETAILS: BSK_CASM3C_IL8: BioMAP Diversity Plus: CASM3C Assay for Interleukin-8 (IL8) Biomarker Activity (AID 2283042);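 further: IL-8 protein level quantified by ELISA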
# EXPERIMENTAL CONDITIONS: primary human coronary artery smooth muscle cells; actives raise or lower the signal
The source made the active and inactive calls. Rule for the calls: active = hit-call score of the fitted dose curve at least 0.9, where 1 is the maximum; inactive = score below 0.9.
Classes used: Yes for active, No for inactive

[
  {
    "MOLECULE": "CCCCCCCCCCCC(=O)N(C)CC(=O)O",
    "GROUP": "No"
  },
  {
    "MOLECULE": "CC(c1cc(C(C)(C)C)cc(C(C)(C)C)c1O)c1cc(C(C)(C)C)cc(C(C)(C)C)c1O",
    "GROUP": "No"
  },
  {
    "MOLECULE": "CC=C(C)C=CC=C(C)C",
    "GROUP": "No"
  },
  {
    "MOLECULE": "C=CCCCCCCCCC=O",
    "GROUP": "No"
  },
  {
    "MOLECULE": "O=C1CCCCCCCCCCCN1",
    "GROUP": "No"
  },
  {
    "MOLECULE": "Oc1c(Cl)cc(Cl)c(Cl)c1Cl",
    "GROUP": "No"
  },
  {
    "MOLECULE": "C=CC(=O)NCOCCCC",
    "GROUP": "No"
  },
  {
    "MOLECULE": "Cc1c(O)cccc1O",
    "GROUP": "No"
  },
  {
    "MOLECULE": "CCCCCCCCCCCC(C)=O",
    "GROUP": "No"
  },
  {
    "MOLECULE": "O=C(O)C(F)(F)C(F)(F)C(F)(F)C(F)(F)C(=O)O",
    "GROUP": "No"
  },
  {
    "MOLECULE": "CC(C)C(=O)OCCc1ccccc1",
    "GROUP": "No"
  },
  {
    "MOLECULE": "Nc1cccc(N)n1",
    "GROUP": "No"
  },
  {
    "MOLECULE": "CCOC(=O)C1=NN(c2ccc(Cl)cc2Cl)C(C)(C(=O)OCC)C1 (configuration not stated)",
    "GROUP": "No"
  },
  {
    "MOLECULE": "CC(C)[N+](C)(CCOC(=O)C1c2ccccc2Oc2ccccc21)C(C)C",
    "GROUP": "No"
  },
  {
    "MOLECULE": "O=C(Oc1ccccc1)c1ccccc1C(=O)Oc1ccccc1",
    "GROUP": "No"
  },
  {
    "MOLECULE": "C[N+](C)(C)CCCNS(=O)(=O)C(F)(F)C(F)(F)C(F)(F)C(F)(F)C(F)(F)C(F)(F)C(F)(F)C(F)(F)F",
    "GROUP": "No"
  },
  {
    "MOLECULE": "C=CC(=O)OCCCCCCOC(=O)C=C",
    "GROUP": "Yes"
  }
]
